Test system: S. aureus DSM 20231
Assay: Bliss interaction score (quartile over a dose matrix) (fitness difference); higher = more antagonism (negative = synergy)
PROPERTY NAME: Bliss interaction score

Enquiry: What measured Bliss interaction score goes with C[C@H]1COc2c(N3CCN(C)CC3)c(F)cc3c(=O)c(C(=O)O)cn1c23 [Levofloxacin] + CN1C2=CC=CC=C2N=C3C1=CC=CC3=O [Pyocyanin] ?
Return: 0.0335

----------
Tested on: S. pneumoniae D39V
Experiment: Bliss interaction score (quartile over a dose matrix) (fitness difference); higher = more antagonism (negative = synergy)
So basically: Bliss interaction score at 0.05 or higher? That is 1.0. Lower than 0.05? That is 0.0.

As a guide, the following entries are already answered.
COMPOUND	GROUP LABEL
C[C@H]1COc2c(N3CCN(C)CC3)c(F)cc3c(=O)c(C(=O)O)cn1c23 [Levofloxacin] + O=C1CN(/N=C/c2ccc([N+](=O)[O-])o2)C(=O)N1 [Nitrofurantoin]	0.0
C[C@H]1COc2c(N3CCN(C)CC3)c(F)cc3c(=O)c(C(=O)O)cn1c23 [Levofloxacin] + CN(C)c1cc(NC(=O)CNC(C)(C)C)c(O)c2c1C[C@H]1C[C@H]3[C@H](N(C)C)C(O)=C(C(N)=O)C(=O)[C@@]3(O)C(O)=C1C2=O [Tigecycline]	0.0
CO/N=C(\C(=O)N[C@@H]1C(=O)N2C(C(=O)[O-])=C(C[N+]3(C)CCCC3)CS[C@H]12)c1csc(N)n1 [Cefepime] + O=C(N[C@H](CO)[C@H](O)c1ccc([N+](=O)[O-])cc1)C(Cl)Cl [Chloramphenicol]	1.0
CO/N=C(\C(=O)N[C@@H]1C(=O)N2C(C(=O)[O-])=C(C[N+]3(C)CCCC3)CS[C@H]12)c1csc(N)n1 [Cefepime] + CC(=O)O[C@H]1C[C@@]2(C)[C@@H](C[C@@H](O)[C@H]3[C@@]4(C)CC[C@@H](O)[C@@H](C)[C@@H]4CC[C@@]32C)/C1=C(\CCC=C(C)C)C(=O)O [Fusidic acid]	1.0
CC1(C)S[C@@H]2[C@H](NC(=O)[C@H](N)c3ccc(O)cc3)C(=O)N2[C@H]1C(=O)O [Amoxicillin] + O=C(O)[C@H]1/C(=C/CO)O[C@@H]2CC(=O)N21 [Clavulanic]	0.0

Enquiry: hey, is Bliss interaction score for this one >= 0.05? CCCCCCCCCC(=O)N[C@@H](Cc1c[nH]c2ccccc12)C(=O)N[C@H](CC(N)=O)C(=O)N[C@@H](CC(=O)O)C(=O)N[C@@H]1C(=O)NCC(=O)N[C@@H](CCCN)C(=O)N[C@@H](CC(=O)O)C(=O)N[C@H](C)C(=O)N[C@@H](CC(=O)O)C(=O)NCC(=O)N[C@H](CO)C(=O)N[C@@H]([C@H](C)CC(=O)O)C(=O)N[C@@H](CC(=O)c2ccccc2N)C(=O)O[C@@H]1C [Daptomycin] + CN(C)c1cc(NC(=O)CNC(C)(C)C)c(O)c2c1C[C@H]1C[C@H]3[C@H](N(C)C)C(O)=C(C(N)=O)C(=O)[C@@]3(O)C(O)=C1C2=O [Tigecycline]
Return: 1.0

Enquiry: Please give the result for CCN(CC)CCOC(=O)c1ccc(N)cc1 [Procaine] + CN(N=O)C(=O)N[C@@H](C=O)[C@@H](O)[C@H](O)[C@H](O)CO [Streptozotocin] too.
Return: 1.0

Enquiry: What about CCCCCCCCCC(=O)N[C@@H](Cc1c[nH]c2ccccc12)C(=O)N[C@H](CC(N)=O)C(=O)N[C@@H](CC(=O)O)C(=O)N[C@@H]1C(=O)NCC(=O)N[C@@H](CCCN)C(=O)N[C@@H](CC(=O)O)C(=O)N[C@H](C)C(=O)N[C@@H](CC(=O)O)C(=O)NCC(=O)N[C@H](CO)C(=O)N[C@@H]([C@H](C)CC(=O)O)C(=O)N[C@@H](CC(=O)c2ccccc2N)C(=O)O[C@@H]1C [Daptomycin] + C[C@H]1c2cccc(O)c2C(=O)C2=C(O)[C@]3(O)C(=O)C(C(N)=O)=C(O)[C@@H](N(C)C)[C@@H]3[C@@H](O)[C@@H]21 [Doxycycline] ?
Return: 0.0

----------
Could you please report measured fitness for the items listed next?
Test system: S. aureus Newman;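 also: OD595 on entry to stationary phase over no-drug wells; at most 1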
Assay: fitness (endpoint OD595 vs no drug) (fraction); higher = more growth
Settings: first compound 0.25 µg/mL; partner 0.25 µg/mL
Give bare numbers.

// known answers, use as guide
COMPOUND	STUDY SYSTEM	PROPERTY NAME	REPORTED
CC1(C)S[C@@H]2[C@H](NC(=O)[C@H](N)c3ccc(O)cc3)C(=O)N2[C@H]1C(=O)O [Amoxicillin] + CC1=C\[C@@H](O)CC(=O)Cc2nc(co2)C(=O)N2CCC=C2C(=O)O[C@H](C(C)C)[C@H](C)/C=C/C(=O)NC\C=C\1 [Virginiamycin M1]	S. aureus Newman	fitness	0.886
CC1(C)S[C@@H]2[C@H](NC(=O)[C@H](N)c3ccc(O)cc3)C(=O)N2[C@H]1C(=O)O [Amoxicillin] + CC[C@H]1OC(=O)[C@H](C)[C@@H](O[C@H]2C[C@@](C)(OC)[C@@H](O)[C@H](C)O2)[C@H](C)[C@@H](O[C@@H]2O[C@H](C)C[C@H](N(C)C)[C@H]2O)[C@](C)(O)C[C@@H](C)CN(C)[C@H](C)[C@@H](O)[C@]1(C)O [Azithromycin]	S. aureus Newman	fitness	0.71
CO/N=C(\C(=O)N[C@@H]1C(=O)N2C(C(=O)[O-])=C(C[N+]3(C)CCCC3)CS[C@H]12)c1csc(N)n1 [Cefepime] + CC1=C\[C@@H](O)CC(=O)Cc2nc(co2)C(=O)N2CCC=C2C(=O)O[C@H](C(C)C)[C@H](C)/C=C/C(=O)NC\C=C\1 [Virginiamycin M1]	S. aureus Newman	fitness	0.863

Kindly review the next compound as well.
Enquiry: Kindly state the measured fitness obtained for CCCCCCCCCC(=O)N[C@@H](Cc1c[nH]c2ccccc12)C(=O)N[C@H](CC(N)=O)C(=O)N[C@@H](CC(=O)O)C(=O)N[C@@H]1C(=O)NCC(=O)N[C@@H](CCCN)C(=O)N[C@@H](CC(=O)O)C(=O)N[C@H](C)C(=O)N[C@@H](CC(=O)O)C(=O)NCC(=O)N[C@H](CO)C(=O)N[C@@H]([C@H](C)CC(=O)O)C(=O)N[C@@H](CC(=O)c2ccccc2N)C(=O)O[C@@H]1C [Daptomycin] + CC1=C(C(=O)O)N2C(=O)[C@@H](NC(=O)[C@H](N)c3ccccc3)[C@H]2SC1 [Cephalexin] with S. aureus Newman.
Return: 0.962

----------
System: B. subtilis 168
Experiment: Bliss interaction score (quartile over a dose matrix) (fitness difference); higher = more antagonism (negative = synergy)
Provide the recorded Bliss interaction score for the entries that follow.
Answers are plain numbers.

Consider the reported Bliss interaction score for these compounds:
COMPOUND	Bliss interaction score
CCCCCCCCCC(=O)N[C@@H](Cc1c[nH]c2ccccc12)C(=O)N[C@H](CC(N)=O)C(=O)N[C@@H](CC(=O)O)C(=O)N[C@@H]1C(=O)NCC(=O)N[C@@H](CCCN)C(=O)N[C@@H](CC(=O)O)C(=O)N[C@H](C)C(=O)N[C@@H](CC(=O)O)C(=O)NCC(=O)N[C@H](CO)C(=O)N[C@@H]([C@H](C)CC(=O)O)C(=O)N[C@@H](CC(=O)c2ccccc2N)C(=O)O[C@@H]1C [Daptomycin] + CCC[C@@H]1C[C@@H](C(=O)N[C@@H]([C@H]2O[C@H](SC)[C@H](O)[C@@H](O)[C@H]2O)[C@@H](C)O)N(C)C1 [Lincomycin]	-0.0659
CCN(CC)CCOC(=O)c1ccc(N)cc1 [Procaine] + Oc1cc(Cl)ccc1Oc1ccc(Cl)cc1Cl [Triclosan]	0.0507

// switching to the query compound
Enquiry: Identify the measured Bliss interaction score of C[C@H]1COc2c(N3CCN(C)CC3)c(F)cc3c(=O)c(C(=O)O)cn1c23 [Levofloxacin] + C/C(=C\C(=O)OCCCCCCCCC(=O)O)C[C@@H]1OC[C@H](C[C@@H]2O[C@H]2[C@@H](C)[C@H](C)O)[C@@H](O)[C@H]1O [Pseudomonic acid] for B. subtilis 168.
Return: 0.0468

----------
Tested on: S. aureus DSM 20231
Assay: Bliss interaction score (quartile over a dose matrix) (fitness difference); higher = more antagonism (negative = synergy)
PROPERTY NAME: Bliss interaction score

COMPOUND	STUDY SYSTEM	PROPERTY NAME	REPORTED
CCCCCCCCCC(=O)N[C@@H](Cc1c[nH]c2ccccc12)C(=O)N[C@H](CC(N)=O)C(=O)N[C@@H](CC(=O)O)C(=O)N[C@@H]1C(=O)NCC(=O)N[C@@H](CCCN)C(=O)N[C@@H](CC(=O)O)C(=O)N[C@H](C)C(=O)N[C@@H](CC(=O)O)C(=O)NCC(=O)N[C@H](CO)C(=O)N[C@@H]([C@H](C)CC(=O)O)C(=O)N[C@@H](CC(=O)c2ccccc2N)C(=O)O[C@@H]1C [Daptomycin] + CCN(CC)CCOC(=O)c1ccc(N)cc1 [Procaine]	S. aureus DSM 20231	Bliss interaction score	0.0381

Now consider a different compound.
Enquiry: API: value(readout= Bliss interaction score, system= S. aureus DSM 20231, query= C[C@H]1COc2c(N3CCN(C)CC3)c(F)cc3c(=O)c(C(=O)O)cn1c23 [Levofloxacin] + CO[C@H]1/C=C/O[C@@]2(C)Oc3c(C)c(O)c4c(O)c(c(/C=N/N5CCN(C)CC5)c(O)c4c3C2=O)NC(=O)/C(C)=C\C=C\[C@H](C)[C@H](O)[C@@H](C)[C@@H](O)[C@@H](C)[C@H](OC(C)=O)[C@@H]1C [Rifampicin] )
Return: 0.0251
